tested on: RXRa DBDmut IVT, anti-RXR (DBD mutation: RXRa K156A/R161A, NR concentration 90 nM); experiment: PBM binding z-score (relative to random genomic background probes); higher = stronger binding; sequences stand for … in GC…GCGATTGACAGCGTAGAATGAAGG
We begin with a simple list: items and their reported PBM binding z-score.
quantity: PBM binding z-score

INSERT INTO measurements (monomer_sequence, data_value) VALUES
  ('CGTCCAAGGTCAGAGAGGTTAGTGAATGCCGAGT', 2.6),
  ('ATCGAAAGGTCGAAGCTGAGTATACCCACCCGAA', 1.42),
  ('GTACCAAGGTGAATAGGTCGTTGCTGAGTAGGCG', -0.0766),
  ('CCTTACGGGTCACGAGGTTATTGCACGACGAGCG', 1.83),
  ('TAGCCTAGGTCATGCGGGCCAGTAGAGTGTCGGC', 0.541),
  ('TTACCAAGGTGAATGGTCGTTGATGCACGCCTTG', -0.0991),
  ('TCGAGTAGGTTAGTCGGGGCATTAAGCCAACATA', 0.352),
  ('TCTGGCAGGCCAGAGGGTCACTCAAGAGGTACGG', -0.443),
  ('TCATATAGGAAAACAGGTGAAAGTCCGTAAGTTA', 1.81),
  ('CTACCAAGATGAACAAGGTCGTTGATTACTATTC', 1.52),
  ('TAACCAAGGTGAGCTGAGGTCGTTGATCCAACTC', -0.0437),
  ('GCTTACGGGTCAAAGGTTATAGCCTGAATAGAAT', 2.7),
  ('TCTGCTCGGTCAACGATGGTCAGCTAATCTGCTA', 0.129),
  ('CGCACGAGGGCATGAGTTGATAGCAAATGCCGAT', 2.41),
  ('TCTAGTTGTTCACGGAGGTCACACACGACGGGTA', 1.18),
  ('GCTAGCAGGCCATTAGGGTCACTCAATGACGGGC', 0.0923),
  ('CGTCCAAGGTGAAGGTCAGTGAAAGAGACTCGAA', 0.585),
  ('TTACCAAGGTGAAAGGTCGTTGACGCACGCCTTG', 0.212),
  ('CCTAGCCGGCCAGGGTCACTCAAGCATTTCGCTT', 0.0811),
  ('CCGACTGGGGCAAAGGTTCCCATACTCAGTACGA', -0.0939),
  ('CCTCGGAGGACAGAAGGTCAGACCTGTCCGCTTT', 0.392),
  ('TAGCCTAGGTTAGATCGGGCCAGTATACGCTATA', -0.662),
  ('CTATCAAGGTGAACAAGGTCGTTGATTACTATTC', 1.5),
  ('GGAACGAGGGCATTCGAGTTTATAGCATGGCGAT', 3.83),
  ('CGAACTAGGTCATTGACAGAACAGTGAATAGTAA', 2.74),
  ('TAGCCTAGGTCATTGGGGCAGTATAGTACGCATC', 1.67),
  ('TCTTGTAGATCAGGCAGGTTAAGAAAGCCTGAGT', 0.355),
  ('ATCTCTAGGTAAGCCTCAGTTCAGTGAAGAACGC', 0.247),
  ('CGAACGAGGGCATGACTTGATAGCAAATGCCGAT', 2.16),
  ('CGTCCAAGGTCATAGGAGGTCAGTGTAGACAGAT', 3.82),
  ('CCTCGGAGGACAGCAGGTCAGAGCTGTCCGCTTT', -0.0565),
  ('ACTCGCAGGCCAAGGGTCACTCAAGATTAGTCCG', 1.03),
  ('CGGCCAAGGTCATAGGAGGTCAGTGAAGACAGAT', 3.51),
  ('GCTTGTAGATCAAGGTTCAGAAAGACTAAGCTAA', 1.09),
  ('GCGACTGGGGCTAAGCAGGTTACCATAAGGTTGG', -0.481),
  ('CAAACTAGGTCACCGGAAGGTCAAAGTCCGCATG', 2.05),
  ('CGTCCAAGGTCAGAAAGGTCAGTGAATGCCGAGT', 3),
  ('CCTGCTAGGGCATGGTCAGCTAATCTACAGTATG', -0.538),
  ('TCTAGTTGGTCAAAGGTCAGACACTCGAAATGCG', 1.57),
  ('GCTGCTAGGTCAACTGATGGTCAGCTTAAGCTCG', 1.76),
  ('CGTCCAAGGTCAAGTTCAGTGAAAGAGACTCGAA', 4.31),
  ('TGAATGTGGTTATAAGATCAGGGAACGTTGCAAA', -0.35);
